# Test system: NOTCH1
# assayMethodText: 3' UTR reporter interaction score (median-centred robust z-score of log2 firefly/Renilla activity); higher = less repression of the 3' UTR reporter
# conditionDetails: HEK293T; 48 h
propertyMeasured: 3' UTR reporter interaction score
Output spec: single numeric token, no unit.

- recordSequence: "UACCCUGUAGAUCCGAAUUUGUG"
  propertyMeasured: "3' UTR reporter interaction score"
  recordedNumber: -2.62

**Q:** Need 3' UTR reporter interaction score of UAAAGUGCUGACAGUGCAGAU , thanks.
**A:** 0.373

---

# System: BRCA2
# assayMethodText: 3' UTR reporter interaction score (median-centred robust z-score of log2 firefly/Renilla activity); higher = less repression of the 3' UTR reporter
# conditionDetails: HEK293T; 48 h
Assign condition met to entries whose 3' UTR reporter interaction score meets or exceeds 0.2; assign condition not met to the rest.

Examples with answers:
- recordSequence: "UUGCAUAUGUAGGAUGUCCCAU"
  classification: "condition met"
- recordSequence: "UGUAAACAUCCUACACUCAGCU"
  classification: "condition met"
- recordSequence: "UUUAACAUGGGGGUACCUGCUG"
  classification: "condition met"
- recordSequence: "GAAAACAGCAAUUACCUUUGCA"
  classification: "condition met"
- recordSequence: "UUAUCAGAAUCUCCAGGGGUAC"
  classification: "condition met"
- recordSequence: "UAAGUGCUUCCAUGUUUGAGUGU"
  classification: "condition not met"
- recordSequence: "UACUCAGGAGAGUGGCAAUCACA"
  classification: "condition met"
- recordSequence: "AGAGGCUGGCCGUGAUGAAUUC"
  classification: "condition not met"

Turning now to a further sequence:
**Q:** // inclusive: 3' UTR reporter interaction score at least 0.2? input: AGACCAUGGGUUCUCAUUGU
**A:** condition not met

All figures here come from the supplement of paper PMC5844555.
